- assay_procedure: Oral and iv pharmacokinetics of 3-SPA in male SD rats
- Format: in vivo, Sprague-Dawley rats
- cond: Sprague-Dawley, rat, iv 10 mg/kg, plasma, read-out: Tmax
assay_metric: Tmax (min)
Numbers only, in min.

Prompt: Give the measured Tmax for O=C(O)CCS(=O)(=O)O [3-SPA, 3-sulfopropanoic acid]
Response: 4.8

* * *

- assay_procedure: in vivo
- cond: rat, po
- From the text: ALZ-801 is a valine conjugate of tramiprosate that has been optimized for improved pharmacokinetic properties and gastrointestinal tolerability. Chronic toxicology studies required for the advancement of ALZ-801 to Phase 3 have been completed, including the nonclinical safety characterization of ALZ-801, and the safety bridge to the extensive nonclinical toxicology and safety data for tramiprosate. […]
assay_metric: NOAEL at 1 month (mg/kg)
One number for each entry, in mg/kg.

Prompt: Give the measured NOAEL at 1 month for CC(C)[C@H](N)C(=O)NCCCS(=O)(=O)O [ALZ-801]
Response: 2000

* * *

- assay_procedure: CSF concentrations of 3-SPA at Week 78 in North American Phase 3 tramiprosate trial (LC-MS/MS)
- Assay type: in vivo, human
- cond: human, CSF, oral, 150 mg BID, 150 mg BID tramiprosate, Week 78, n=6; read-out: CSF concentration of 3-SPA, Mean ± SD
assay_metric: concentration at 78 week (nM)
One number for each entry, in nM.

Prompt: Give the measured concentration at 78 week for O=C(O)CCS(=O)(=O)O [3-SPA, 3-sulfopropanoic acid]
Response: 147

* * *

- assay_procedure: CSF concentrations of 3-SPA at Week 78 in North American Phase 3 tramiprosate trial (LC-MS/MS)
- Assay type: in vivo, human
- cond: human, CSF, oral, 150 mg BID, 150 mg BID tramiprosate, Week 78; read-out: CSF concentration of 3-SPA, Minimum-maximum
assay_metric: concentration at 78 week

Prompt: Give the measured concentration at 78 week for O=C(O)CCS(=O)(=O)O [3-SPA, 3-sulfopropanoic acid]
Response: 114 to 236 nM

* * *

- assay_procedure: in vivo
- cond: rat, po
- Excerpt: ALZ-801 is a valine conjugate of tramiprosate that has been optimized for improved pharmacokinetic properties and gastrointestinal tolerability. Chronic toxicology studies required for the advancement of ALZ-801 to Phase 3 have been completed, including the nonclinical safety characterization of ALZ-801, and the safety bridge to the extensive nonclinical toxicology and safety data for tramiprosate. […]
assay_metric: NOAEL at 6 month (mg/kg)
Answers are plain numbers, in mg/kg.

Prompt: Give the measured NOAEL at 6 month for CC(C)[C@H](N)C(=O)NCCCS(=O)(=O)O [ALZ-801]
Response: 1500
